# assayed_system: T1, EsCas13d, nuclease-dead (Eubacterium siraeum, UniProt B0MS50, R295A;H300A;R849A;H854A)
# T1 sequence: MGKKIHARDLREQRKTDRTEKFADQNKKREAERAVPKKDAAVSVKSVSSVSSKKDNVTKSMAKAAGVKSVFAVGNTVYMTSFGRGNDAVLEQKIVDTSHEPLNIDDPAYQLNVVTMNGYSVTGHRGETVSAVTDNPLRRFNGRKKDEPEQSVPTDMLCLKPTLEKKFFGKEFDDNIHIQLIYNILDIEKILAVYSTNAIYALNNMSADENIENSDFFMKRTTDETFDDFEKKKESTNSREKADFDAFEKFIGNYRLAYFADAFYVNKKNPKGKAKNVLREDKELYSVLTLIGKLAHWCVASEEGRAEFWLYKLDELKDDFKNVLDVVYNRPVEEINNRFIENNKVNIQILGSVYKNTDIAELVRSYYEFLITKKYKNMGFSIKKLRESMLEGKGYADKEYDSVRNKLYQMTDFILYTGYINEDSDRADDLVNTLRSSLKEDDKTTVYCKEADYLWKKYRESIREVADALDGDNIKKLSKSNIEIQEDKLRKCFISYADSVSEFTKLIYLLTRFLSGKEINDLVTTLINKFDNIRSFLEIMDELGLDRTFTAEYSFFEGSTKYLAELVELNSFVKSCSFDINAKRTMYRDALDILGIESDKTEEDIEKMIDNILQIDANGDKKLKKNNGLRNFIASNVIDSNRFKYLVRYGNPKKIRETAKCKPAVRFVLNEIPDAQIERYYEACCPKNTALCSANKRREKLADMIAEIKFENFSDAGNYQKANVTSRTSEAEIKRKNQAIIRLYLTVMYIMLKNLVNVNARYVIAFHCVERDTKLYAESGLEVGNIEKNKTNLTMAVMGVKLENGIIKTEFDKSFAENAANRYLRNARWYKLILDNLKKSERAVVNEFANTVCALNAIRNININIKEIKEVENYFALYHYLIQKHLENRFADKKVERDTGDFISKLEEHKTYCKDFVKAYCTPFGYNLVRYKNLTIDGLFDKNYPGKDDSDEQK
# assay_notes: crRNA (strand 1, pre-loaded); Mg2+; 40 mM Tris-HCl pH 7.5, 150 mM NaCl, 6 mM MgCl2, 1 mM DTT, 0.1% Tween-20, 0.2 mg/ml BSA; 25 C; 10 min per concentration, then washed
# measurement_conditions: tags: His6-TwinStrep-SUMO cleaved; N-terminal SNAP kept (SNAP-Surface 488); label: 3' end held by stalled T7 RNA polymerase
So basically, if Kd comes in under 20 nM it's true (1), and if it's 20 nM or more it's false (0).

binder: target 1 insG 3' of 22,insA 3' of 4 (mixed) RNA 1: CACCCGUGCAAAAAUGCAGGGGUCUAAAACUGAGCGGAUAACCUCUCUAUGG RNA 2: GGGAAUGGAUCCACAUCUACGAAUUCGUACGCAUAGAGAGGUUAUCCGCAUCACCGAGAUCGGAAGAGCACACGU
discrete_label: true (1)

binder: target 1 insG 3' of 19,insC 3' of 9 (mixed) RNA 1: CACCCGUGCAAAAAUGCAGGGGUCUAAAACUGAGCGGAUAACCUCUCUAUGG RNA 2: GGGAAUGGAUCCACAUCUACGAAUUCGUACCAUGAGAGAGGUUACUCCGCUCACCGAGAUCGGAAGAGCACACGU
discrete_label: false (0)

binder: target 1 G5A,U8C (mixed) RNA 1: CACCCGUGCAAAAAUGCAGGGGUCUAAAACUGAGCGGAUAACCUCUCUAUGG RNA 2: GGGAAUGGAUCCACAUCUACGAAUUCGUACCAUAGAGAGGUUACCCACUCACCGAGAUCGGAAGAGCACACGU
discrete_label: true (1)

binder: target 1 insG 3' of 6,insG 3' of 3 (mixed) RNA 1: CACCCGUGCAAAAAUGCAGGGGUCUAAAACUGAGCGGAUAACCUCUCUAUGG RNA 2: GGGAAUGGAUCCACAUCUACGAAUUCGUACCAUAGAGAGGUUAUCCGGCUGCACCGAGAUCGGAAGAGCACACGU
discrete_label: true (1)

binder: target 1 G12A,A16C (mixed) RNA 1: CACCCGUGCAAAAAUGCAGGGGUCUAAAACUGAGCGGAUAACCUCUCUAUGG RNA 2: GGGAAUGGAUCCACAUCUACGAAUUCGUACCAUAGCGAGAUUAUCCGCUCACCGAGAUCGGAAGAGCACACGU
discrete_label: false (0)

binder: target 1 insU 3' of 20,insA 3' of 15 (mixed) RNA 1: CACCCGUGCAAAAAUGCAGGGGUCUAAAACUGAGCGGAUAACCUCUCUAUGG RNA 2: GGGAAUGGAUCCACAUCUACGAAUUCGUACCAUUAGAGAAGGUUAUCCGCUCACCGAGAUCGGAAGAGCACACGU
discrete_label: true (1)

binder: target 1 C6A,A18C (mixed) RNA 1: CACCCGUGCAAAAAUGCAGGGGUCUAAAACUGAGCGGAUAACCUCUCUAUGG RNA 2: GGGAAUGGAUCCACAUCUACGAAUUCGUACCAUCGAGAGGUUAUCAGCUCACCGAGAUCGGAAGAGCACACGU
discrete_label: false (0)

binder: target 2 MT 5'PFS GGG 3'PFS AUC (mixed) RNA 1: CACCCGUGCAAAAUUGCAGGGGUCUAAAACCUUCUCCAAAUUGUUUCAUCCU RNA 2: GGGAAUGGAUCCACAUCUACGAAUUCGGGAGGAUGAAACAAUUUGGAGAAGAUCAGAUCGGAAGAGCACACGU
discrete_label: true (1)

binder: target 1 C4U,U8A (mixed) RNA 1: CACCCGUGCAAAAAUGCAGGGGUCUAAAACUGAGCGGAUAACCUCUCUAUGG RNA 2: GGGAAUGGAUCCACAUCUACGAAUUCGUACCAUAGAGAGGUUAACCGUUCACCGAGAUCGGAAGAGCACACGU
discrete_label: true (1)

binder: target 1 U3A,U10A (mixed) RNA 1: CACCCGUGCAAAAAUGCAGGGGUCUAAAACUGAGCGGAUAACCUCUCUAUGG RNA 2: GGGAAUGGAUCCACAUCUACGAAUUCGUACCAUAGAGAGGUAAUCCGCACACCGAGAUCGGAAGAGCACACGU
discrete_label: false (0)

binder: target 2 MT 5'PFS GCA 3'PFS CUG (mixed) RNA 1: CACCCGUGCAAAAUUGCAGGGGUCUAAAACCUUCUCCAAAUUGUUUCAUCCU RNA 2: GGGAAUGGAUCCACAUCUACGAAUUCGCAAGGAUGAAACAAUUUGGAGAAGCUGAGAUCGGAAGAGCACACGU
discrete_label: true (1)

binder: target 3 A12G,U21A (mixed) RNA 1: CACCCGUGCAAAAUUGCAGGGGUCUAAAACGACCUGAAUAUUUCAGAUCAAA RNA 2: GGGAAUGGAUCCACAUCUACGAAUUCGUUUAUGAUCUGAGAUAUUCAGGUCUGCAGAUCGGAAGAGCACACGU
discrete_label: false (0)

binder: target 1 insA 3' of 12,insU 3' of 1 (mixed) RNA 1: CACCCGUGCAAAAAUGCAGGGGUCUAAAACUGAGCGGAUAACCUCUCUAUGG RNA 2: GGGAAUGGAUCCACAUCUACGAAUUCGUACCAUAGAGAGGAUUAUCCGCUCAUCCGAGAUCGGAAGAGCACACGU
discrete_label: false (0)

binder: target 1 insC 3' of 8,insG 3' of 3 (mixed) RNA 1: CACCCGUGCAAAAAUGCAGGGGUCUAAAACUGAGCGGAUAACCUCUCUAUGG RNA 2: GGGAAUGGAUCCACAUCUACGAAUUCGUACCAUAGAGAGGUUAUCCCGCUGCACCGAGAUCGGAAGAGCACACGU
discrete_label: true (1)

binder: target 1 insA 3' of 3,insA 3' of 3 (mixed) RNA 1: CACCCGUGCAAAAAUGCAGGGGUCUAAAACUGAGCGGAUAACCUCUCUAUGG RNA 2: GGGAAUGGAUCCACAUCUACGAAUUCGUACCAUAGAGAGGUUAUCCGCUAACACCGAGAUCGGAAGAGCACACGU
discrete_label: true (1)

Reference source for all entries: paper PMC10786891
